Biological target: recombinant human CK2 (Homo sapiens (Human), UniProt P68400)
Sequence (P68400 whole entry): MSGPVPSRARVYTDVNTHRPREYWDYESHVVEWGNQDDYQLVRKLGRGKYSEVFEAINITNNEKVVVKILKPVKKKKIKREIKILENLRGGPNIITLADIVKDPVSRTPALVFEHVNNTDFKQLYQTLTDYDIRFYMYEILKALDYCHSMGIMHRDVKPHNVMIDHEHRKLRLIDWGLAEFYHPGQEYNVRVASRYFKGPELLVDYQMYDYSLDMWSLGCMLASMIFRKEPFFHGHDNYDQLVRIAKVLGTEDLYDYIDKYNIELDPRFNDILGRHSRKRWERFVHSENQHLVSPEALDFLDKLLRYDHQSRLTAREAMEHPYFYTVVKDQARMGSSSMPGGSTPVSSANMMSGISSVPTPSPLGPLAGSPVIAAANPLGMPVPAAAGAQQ
Sequence (P67870 whole entry partner): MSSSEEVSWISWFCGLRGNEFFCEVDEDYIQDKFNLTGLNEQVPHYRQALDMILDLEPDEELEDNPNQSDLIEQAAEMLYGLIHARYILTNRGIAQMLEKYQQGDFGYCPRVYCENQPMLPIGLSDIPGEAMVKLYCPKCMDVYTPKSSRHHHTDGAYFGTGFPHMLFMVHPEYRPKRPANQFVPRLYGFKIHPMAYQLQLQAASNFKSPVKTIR
Assay: CK2 assay (cell-free, 33P-ATP filter plate)
Assay type: biochemical
Conditions: 10 uM
assay.readout: CK2 % inhib @ 10 uM (%)
Answers are plain numbers, in %.

Sample records with CK2 % inhib @ 10 uM:
compound	target.of.assay	result.value
COC(=O)c1ccccc1NC(=O)c1ccc2c(c1)[nH]c(=O)c1ccsc12 [drawing 673]	recombinant human CK2 (Homo sapiens (Human), UniProt P68400)	5
CC(C)(C)OC(=O)NC1CCN(C(=O)c2ccc3c(c2)[nH]c(=O)c2ccsc23)CC1 [drawing 677]	recombinant human CK2 (Homo sapiens (Human), UniProt P68400)	1
COC(=O)c1ccccc1NC(=O)c1ccc2c(c1)[nH]c(=O)c1ccsc12 [drawing 674]	recombinant human CK2 (Homo sapiens (Human), UniProt P68400)	−16
CC(C)(C)OC(=O)NC1CCN(C(=O)c2ccc3c(c2)[nH]c(=O)c2ccsc23)CC1 [drawing 676]	recombinant human CK2 (Homo sapiens (Human), UniProt P68400)	10
O=C(NCc1ccccc1)c1ccc2c(c1)[nH]c(=O)c1ccsc12 [drawing 672]	recombinant human CK2 (Homo sapiens (Human), UniProt P68400)	−1

Would you kindly look at the next entry?
Entry O=C(NCc1ccccc1)c1ccc2c(c1)[nH]c(=O)c1ccsc12 [drawing 671] : reported CK2 % inhib @ 10 uM = ?
14

----------
Target: recombinant human PIM1 (Homo sapiens (Human))
Experiment: PIM-1 kinase activity in cell-free in vitro assay
Assay type: biochemical
Conditions: 500 nM compound, cell-free assay; read-out: PIM-1: % inh 500 nM
Task for the reader: assign each of the following compounds its reported inhibition at 0.5 µM.
Numbers only, in %.

Consider the reported inhibition at 0.5 µM for these compounds:
compound	inhibition at 0.5 µM [%]
CC(C)(C)OC(=O)N1CCCC1CCNc1nc2cc(C#N)ccc2c2sccc12 (centres unmarked)	-13
CC(C)OC(=O)Nc1ccc2c(c1)nc(Nc1cccc(C(F)(F)F)c1)c1nc(NC3CC3)ncc12	10.1
O=c1[nH]c2cc(F)ccc2c2cnccc12	15.3
O=C(O)c1ccc2c(c1)nc(Nc1ccc(F)c(Cl)c1)c1cccnc12	22.1

Please go through the list and note inhibition at 0.5 µM for each compound.
1. C#Cc1cccc(Nc2nc3cc(C(=O)NC)ccc3c3cncnc23)c1
2. N#Cc1ccc2c(c1)nc(NCC1CCCN1)c1ccsc12 (centres unmarked)
3. C#Cc1cccc(Nc2nc3cc(C(=O)N(C)CCN(C)C)ccc3c3cncnc23)c1

[-28.3, 14.1, -15.5]

The following compounds each have a reported value; give each one's inhibition at 0.5 µM.
1. CN1CCN(c2nc3cc(C(=O)NNc4ccccn4)ccc3c3sccc23)CC1
2. CN(C)c1ncc2c(n1)c(NC1CC1)nc1cc(C(=O)O)ccc12
3. CSc1ncc2c(n1)c(Nc1ccccc1C)nc1cc(C(=O)O)ccc12
4. O=C(O)c1ccc2c(c1)nc(NC1CCCC1)c1ccncc12

-10.9
-38.5
9.67
106

----------
Here's what we have: pIC50 numbers for PIM2 (Homo sapiens (Human), UniProt Q9P1W9).
pIC50: −log10 of the molar value.

Examples from the recorded data:
compound	pIC50
Fc1ccc(Nc2nc3c(-c4nnc[nH]4)cccc3c3cnccc23)cc1	> 6.30
c1cncc(CNc2nc3c(-c4nc[nH]n4)cccc3c3cnccc23)c1	< 5.96
COc1cccc(Nc2nc3c(-c4nnc[nH]4)cccc3c3cnccc23)c1	> 6.00
c1cc(-c2nc[nH]n2)c2nc(NCC3CC3)c3ccncc3c2c1	> 6.30
OCCNc1nc2c(-c3nnc[nH]3)cccc2c2cnccc12	> 6.00

Field: pIC50. Fill in for each record below.
1. Clc1ccccc1Nc1nc2c(-c3nnc[nH]3)cccc2c2cnccc12 [drawing 2209]
2. c1cc(-c2nc[nH]n2)c2nc(NCc3ccncc3)c3ccncc3c2c1

["> 7.00", "> 6.00"]

----------
Target: recombinant human PIM1 (Homo sapiens (Human))
Experiment: PIM-1 kinase activity in cell-free in vitro assay
Assay type: biochemical
Settings: 500 nM compound, cell-free assay; read-out: PIM-1: % inh 500 nM
assay.readout: inhibition at 0.5 µM

1) Fc1cccc(Nc2nc3cc(CN(Cc4ccccc4)Cc4ccccc4)ccc3c3sccc23)c1 2.98%
2) Cc1cc(NC(=O)NCc2ccc3c(c2)nc(Nc2cccc(F)c2)c2ccsc23)c(C(F)(F)F)o1 -17.5%
3) Cn1nc(C2CC2)cc1Nc1nc2cc(C(=O)O)ccc2c2cnccc12 45.8%

State recorded inhibition at 0.5 µM for all listed compounds.
1. C#Cc1cccc(Nc2nc3cc(C(=O)O)ccc3c3cnc(NC)nc23)c1
2. CN(CCc1ccccn1)c1nc2cc(C(=O)O)ccc2c2cnccc12

1. 68.2%
2. 3.73%

----------
Molecular target: UniProt:P80192
Experiment: Standardized radiometric kinase assays, percentage of activity at 0.5 μM;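 also: Read-out is ³³P-labelled substrate protein phosphorylated by each kinase, captured on filters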
assay.readout: MLK1 percentage of activity

# example entries with known answers
molecule	target.of.assay	result.value
C#Cc1cccc(Nc2nc3cc(C(=O)O)ccc3c3cnccc23)c1 [drawing 1137]	UniProt:P80192	21%
O=C(O)c1ccc2c(c1)nc(Nc1cccc(Cl)c1)c1ccncc12 [drawing 1136]	UniProt:P80192	43%
NC(=O)c1ccc2c(c1)nc(Nc1cccc(Cl)c1)c1ccncc12 [drawing 1138]	UniProt:P80192	49%

--- query ---
// MLK1 percentage of activity lookup, key: C#Cc1cccc(Nc2nc3cc(C(=O)O)ccc3c3cncnc23)c1 [drawing 1135]
20%

----------
Target: recombinant human CK2 (Homo sapiens (Human), UniProt P68400)
Assay: CK2 assay (cell-free, 33P-ATP filter plate)
Type: biochemical
Details: 500 nM compound, cell-free assay; read-out: CK2: % inh 500 nM
Field: inhibition at 0.5 µM. Provide a value for each of the compounds that follow.
Give bare numbers, in %.

compound	target.of.assay	unit.name	result.value
Clc1ccc(Nc2nc3cc(-c4nnn[nH]4)ccc3c3cscc23)cc1	recombinant human CK2 (Homo sapiens (Human), UniProt P68400)	%	39.5
Clc1cccc(Nc2nc3cc(-c4nnc[nH]4)ccc3c3cnccc23)c1	recombinant human CK2 (Homo sapiens (Human), UniProt P68400)	%	-2.18
Clc1cccc(Nc2nc3cc(-c4nnn[nH]4)ccc3c3cscc23)c1	recombinant human CK2 (Homo sapiens (Human), UniProt P68400)	%	63.3
CN(C)CCCN(C)c1nc2cc(-c3nnn[nH]3)ccc2c2sccc12	recombinant human CK2 (Homo sapiens (Human), UniProt P68400)	%	60.1
c1cc2c(NCC3CCCN3)nc3cc(-c4nnn[nH]4)ccc3c2s1 (stereo not drawn)	recombinant human CK2 (Homo sapiens (Human), UniProt P68400)	%	86.1

# next compound below
I would be grateful if you could share the reported inhibition at 0.5 µM for CCN1CCCC1CNc1nc2cc(C(=O)O)ccc2c2cnccc12 (stereo not drawn) .
107

----------
Would you kindly list inhibition at 0.5 µM for each of these compounds?
Molecular target: recombinant human PIM1 (Homo sapiens (Human))
Experiment: PIM-1 kinase activity in cell-free in vitro assay
Type: biochemical
Details: 500 nM compound, cell-free assay; read-out: PIM-1: % inh 500 nM
Numbers only, in %.

Examples with their reported inhibition at 0.5 µM follow.
compound	unit.name	inhibition at 0.5 µM
Cn1nc(-c2ccccc2)cc1Nc1nc2cc(C(=O)O)ccc2c2cnccc12	%	58.3
O=C(O)c1ccc2c(c1)nc(NCc1cccnc1)c1nc(NC3CC3)ncc12 [drawing 1625]	%	26.9
N#Cc1ccc2c(c1)nc(Oc1ccc(F)cc1)c1ccsc12	%	10
O=C(O)c1ccc2c(c1)nc(N1CCC(c3ccccc3)C1)c1ccncc12 (centres unmarked)	%	1.04

Dear colleague, could you send me inhibition at 0.5 µM for each of the items below? Thanks.
1. O=C(O)c1ccc2c(c1)nc(NC1CC1)c1nc(NCCO)ncc12
2. c1cc2c(NC3CCNCC3)nc3cc(-c4nnn[nH]4)ccc3c2s1

[22.4, 85.7]

----------
Assay: Pharmacokinetics after IV and PO dose in beagle dogs
Format: in vivo
Settings: beagle, plasma; IV 2.00 mg/kg, Dog
assay.readout: Vd (L/kg)
Give bare numbers, in L/kg.

For the molecule shown here, "C#Cc1cccc(Nc2nc3cc(C(=O)O)ccc3c3cncnc23)c1" , give the reported Vd.
10.2

----------
So I've got a bunch of molecules here, and I need their inhibition at 0.5 µM values.
Target: recombinant human PIM1 (Homo sapiens (Human), UniProt P11309)
Sequence (P11309 whole entry): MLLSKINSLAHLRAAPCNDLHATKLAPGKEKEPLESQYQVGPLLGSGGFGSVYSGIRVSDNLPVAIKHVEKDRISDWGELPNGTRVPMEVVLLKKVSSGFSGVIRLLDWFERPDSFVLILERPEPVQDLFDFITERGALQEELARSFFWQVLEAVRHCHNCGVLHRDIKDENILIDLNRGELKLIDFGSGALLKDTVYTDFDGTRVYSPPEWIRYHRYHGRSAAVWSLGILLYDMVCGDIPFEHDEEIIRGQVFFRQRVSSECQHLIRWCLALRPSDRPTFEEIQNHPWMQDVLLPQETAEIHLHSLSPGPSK
Experiment: PIM-1 kinase activity in cell-free in vitro assay
Type: biochemical
Conditions: 500 nM compound, cell-free assay; read-out: PIM-1: % inh 500 nM
One number for each entry, in %.

Please review the entries below; each comes with its answer.
molecule	result.value
NS(=O)(=O)c1cccc(Nc2nc3cc(C(=O)O)ccc3c3cnccc23)c1	83.4
CN(C)CCN(C)c1nc2cc(C#N)ccc2c2sccc12	-3.15
CN(C)CCOc1nc2cc(-c3nnn[nH]3)ccc2c2sccc12	91.6
Cn1cnnc1-c1cccc(Nc2nc3cc(C(=O)O)ccc3c3cnccc23)c1	54.9
O=C(O)c1ccc2c(c1)nc(NCc1cccc3ccccc13)c1ccncc12	15.6
N#Cc1ccc2c(c1)nc(NCCN1CCOCC1)c1ccsc12	-23.8

Could you tell me inhibition at 0.5 µM for each of these molecules? They are listed below.
1. CN(c1cccc(Cl)c1)c1nc2cc(C(=O)O)ccc2c2cnccc12
2. O=C(O)c1ccc2c(c1)nc(N1CCc3c([nH]c4ccccc34)C1)c1ccncc12
3. N#Cc1ccc2c(c1)nc(NCCn1cccc1)c1ccsc12

1. 34.8
2. 38.8
3. -25.6

// each listed molecule needs a value for inhibition at 0.5 µM
1. CN1CCN(c2nc3cc(C(=O)NCC4CCCO4)ccc3c3sccc23)CC1 (centres unmarked)
2. O=C(NC1CC1)c1ccc2c(c1)nc(Nc1cccc(Cl)c1)c1ccncc12

[11, -5.18]
